Cited source for all entries: the supplement of paper PMC10567573

Assay Notes: protein stability index of a GFP-peptide fusion (GPS, HEK-293T) (PSI 1-6); higher = more stable;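 note: 24-mer peptide tiles fused after GFP, lentivirally expressed, FACS-sorted into six equal bins by GFP/DsRed ratio, decoded by Illumina sequencing, PSI is the read-weighted mean bin number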
Experimental Conditions: treatment: MLN4924 1 uM, 8 h; c terminus: a fixed tail appended
This section presents sequences with their documented protein stability index values.
Please respond with just the number, no unit label.

Reference set (3 entries):
> print(dat)
                       residue.string                 quantity  endpoint.result
1  SVRILGSLVAILLVFLITAILVKV [SLC29A1]  protein stability index             2.85
2    DQIGSEIIEELGEQRDQLERTKSR [VTI1B]  protein stability index             5.47
3    VEQGERALERRRRALQEEERAAAQ [ZBED3]  protein stability index             5.29

# input sequence: FLSEEEYWKLQIFFTNVIQALGEH [CCNC] ; wanted: its protein stability index
2.36

# input sequence: GREDEDGWETRGDRKARKPLVEKK [HES6] ; wanted: its protein stability index
5.34

# input sequence: PILKRLERPQDRDTPVQNKRRRSV [CDC25B] ; wanted: its protein stability index
5.11

# input sequence: ISKMEPLEIPVETITSEVIEKCTT [CRY1] ; wanted: its protein stability index
4.32

----------
Assay Notes: protein stability index of a GFP-peptide fusion (GPS, HEK-293T) (PSI 1-6); higher = more stable
Experimental Conditions: treatment: DMSO; c terminus: a fixed tail appended
Classification field: 1.0 = protein stability index at or over 3; 0.0 = protein stability index under 3.

Solved cases below.
> print(dat)
                        residue.string  class.label
1    QWTVGKLNCPFCGARLGGFNFVST [RNF180]          0.0
2      IREQIKKYRRHFLRFCHNNKKAKR [EIF5]          0.0
3  KKVYLTGFALDILFAIANGFSPSY [SLC22A15]          0.0
4     PIKLELLEPKANLQAALQVLELHH [VPS39]          0.0
5     KLILTSSASVIFEGVDIKNGTEDL [NSDHL]          1.0
6     GFTPLHMAVDKDTTNVGRYPVGRF [FEM1A]          1.0

Could you please find out whether KLNEQSPTRCTLEAGAMTFHYIIE [SEC22B] has protein stability index that meets 3 or exceeds it?
0.0

Could you please find out whether PLLKLACTNTYVTGLSMIANGGAI [OR4A15] has protein stability index that meets 3 or exceeds it?
0.0

Could you please find out whether AEHWKHKKEESGRERKKNWGGQED [PBXIP1] has protein stability index that meets 3 or exceeds it?
1.0

Could you please find out whether LHVSLGQKLVAAYVLGLLTMVFLR [MOSPD3] has protein stability index that meets 3 or exceeds it?
1.0

Could you please find out whether CHSCQLYLPSTEFSVSSTSRRIYR [IQUB] has protein stability index that meets 3 or exceeds it?
0.0

Could you please find out whether PYTEKPRLWHTACASDEGEVIVFG [KLHDC2] has protein stability index that meets 3 or exceeds it?
0.0

Could you please find out whether IHDLDLTLLNPRMIVDVTPYMNPS [CLCN6] has protein stability index that meets 3 or exceeds it?
0.0

Could you please find out whether RCRQSLEDSESLRIKEVEHMTRHL [LRRC45] has protein stability index that meets 3 or exceeds it?
1.0
